Assay: Human HepG2 cell viability assay in 384 well format
Format: toxicity, cell-based
Set-up: dose 125 nL, time 70.5 hour; concentration not given beside the values
Settings: HepG2 cells, read-out: Inhibition
Assay Endpoint: cytotoxicity at 70.5 h (%)
A number alone suffices; assume %.

Ask: # return recorded cytotoxicity at 70.5 h for entry CCc1ncc(CN2CCCN(CC3CC3)C(C(C)C)C2)cn1 (configuration not stated)
Result: 9.86

Ask: # return recorded cytotoxicity at 70.5 h for entry Cc1nc(C)n(CC2CCCN2Cc2nc(C3CC3)no2)n1 (configuration not stated)
Result: -5.43

Ask: # return recorded cytotoxicity at 70.5 h for entry `COCCNC(=O)[C@H]1C[C@@H]2CCN(c3nncs3)C[C@H]2O1`
Result: -4.17

Ask: # return recorded cytotoxicity at 70.5 h for entry CCNC(=O)CN1CCC(c2cc(OC)cc(OC)c2)C1 (configuration not stated)
Result: -10.7

---

Assay: Human HepG2 cell viability assay in 384 well format
Assay type: toxicity, cell-based
Set-up: dose 125 nL, time 70.5 hour; concentration not given beside the values
Conditions: HepG2 cells, read-out: Inhibition
Assay Endpoint: cytotoxicity at 70.5 h (%)
A number alone suffices; assume %.

>  <Compound>
CN(C)c1cccc(C(=O)N2CCCC2c2ncc3c(n2)CCNC3)c1 (stereo not drawn)

>  <cytotoxicity at 70.5 h / %>
-2.08

$$$$

Ask: # return recorded cytotoxicity at 70.5 h for entry `COCC(=O)N1CCO[C@H]2[C@H](OCc3cccnc3)CC[C@@H]21`
Result: 1.22

Ask: # return recorded cytotoxicity at 70.5 h for entry CCC(O)CN1CCN(C(=O)Cc2ccccc2Cl)CC1 (stereo not drawn)
Result: -0.929

Ask: # return recorded cytotoxicity at 70.5 h for entry `O=C(O)c1cncc(Cc2ccccc2F)c1`
Result: -6.6

Ask: # return recorded cytotoxicity at 70.5 h for entry COc1ccccc1NC(=O)CC(C)NCCc1sc(C)nc1C (stereo not drawn)
Result: 8.63

Ask: # return recorded cytotoxicity at 70.5 h for entry CN(CC(=O)N1CCCCC1c1nccs1)C1CC1 (stereo not drawn)
Result: 28.5

Ask: # return recorded cytotoxicity at 70.5 h for entry `CC(=O)c1cccc(NC(=O)Cn2cc(I)cn2)c1`
Result: -9.34

Ask: # return recorded cytotoxicity at 70.5 h for entry COCCC1(CO)CCCN(C(=O)c2cccnc2O)C1 (stereo not drawn)
Result: -3.89

---

Readings of cytotoxicity at 70.5 h for the listed compounds
Experiment: Human HepG2 cell viability assay in 384 well format
Format: toxicity, cell-based
Set-up: dose 125 nL, time 70.5 hour; concentration not given beside the values
Conditions: HepG2 cells, read-out: Inhibition
A number alone suffices; assume %.

Answered cases to consult:
>  <Compound>
CC(C)c1nn(C)c(N(C)C)c1CNC1CCc2cc(F)ccc21 (configuration not stated)

>  <Units Symbol>
%

>  <cytotoxicity at 70.5 h>
5.83

$$$$
>  <Compound>
CN1CCN(S(C)(=O)=O)c2cc(F)ccc21

>  <Units Symbol>
%

>  <cytotoxicity at 70.5 h>
-14.8

$$$$
>  <Compound>
O=C(NCCCc1nnc2ccccn12)c1ccccc1C1CCNC1 (configuration not stated)

>  <Units Symbol>
%

>  <cytotoxicity at 70.5 h>
-0.698

$$$$
>  <Compound>
NC(=O)C(CNC(=O)CCc1ccccc1)Cc1ccc(F)cc1 (configuration not stated)

>  <Units Symbol>
%

>  <cytotoxicity at 70.5 h>
-2.33

$$$$
>  <Compound>
Cc1nc(C)n(C2CCCN(C(=O)c3sccc3C3CC3)C2)n1 (configuration not stated)

>  <Units Symbol>
%

>  <cytotoxicity at 70.5 h>
21.5

$$$$

Ask: # return recorded cytotoxicity at 70.5 h for entry `Cc1noc(C)c1CNc1c(N2CCCC2)cccc1N1CCCC1`
Result: -5.49

Ask: # return recorded cytotoxicity at 70.5 h for entry `CCc1ccc(CNCC2CCN(CCO)CC2)cc1`
Result: 16.5

Ask: # return recorded cytotoxicity at 70.5 h for entry `Cn1nnnc1SCC1(O)CCCCC1`
Result: -5.84

Ask: # return recorded cytotoxicity at 70.5 h for entry `Cc1cccc(CN2CCc3onc(Cn4cccc4)c3C2)n1`
Result: -2.56

Ask: # return recorded cytotoxicity at 70.5 h for entry `Cc1cc2c(=O)n3c(nc2s1)CCN(Cc1cnn(C)c1C)CC3`
Result: -11.8

Ask: # return recorded cytotoxicity at 70.5 h for entry `CN(C)CCO[C@H]1CN(C(=O)c2cccs2)[C@@H]2COC[C@H]12`
Result: 20.9

Ask: # return recorded cytotoxicity at 70.5 h for entry `CN(C)CCNC(=O)c1cc2c(s1)CCN2S(C)(=O)=O`
Result: -9.71

---

Assay: Human HepG2 cell viability assay in 384 well format
Format: toxicity, cell-based
Set-up: dose 125 nL, time 70.5 hour; concentration not given beside the values
Conditions: HepG2 cells, read-out: Inhibition
Assay Endpoint: cytotoxicity at 70.5 h (%)
A number alone suffices; assume %.

Answered cases to consult:
>  <Molecule>
Cc1cnc(C(=O)N2CCCC(Cn3cc(CC(C)C)nn3)C2)cn1 (centres undefined)

>  <cytotoxicity at 70.5 h / %>
-8.09

$$$$
>  <Molecule>
CC(C)C1=NOC(c2nc(Cc3ccccc3)no2)C1 (centres undefined)

>  <cytotoxicity at 70.5 h / %>
-1.11

$$$$
>  <Molecule>
CCSCC(C)NCc1ccccc1-n1ccnc1 (centres undefined)

>  <cytotoxicity at 70.5 h / %>
-2.53

$$$$

Ask: # return recorded cytotoxicity at 70.5 h for entry NS(=O)(=O)c1ccc(CC(=O)N2CCCC(n3cccn3)C2)cc1 (centres undefined)
Result: -7.64

Ask: # return recorded cytotoxicity at 70.5 h for entry CCC(C)NC(=O)c1ccc(-c2ccco2)[nH]c1=O (centres undefined)
Result: -5.06

Ask: # return recorded cytotoxicity at 70.5 h for entry CC(NCCc1nccn1Cc1ccccc1)c1ccsc1 (centres undefined)
Result: -10.7

Ask: # return recorded cytotoxicity at 70.5 h for entry COCCC(=O)N1CCC2(CCN(Cc3cccc(F)c3)C2)C1 (centres undefined)
Result: 24.8

Ask: # return recorded cytotoxicity at 70.5 h for entry Clc1ccccc1Cn1cc(CNC2CCc3ncnn3C2)cn1 (centres undefined)
Result: -0.86

---

Experiment: Human HepG2 cell viability assay in 384 well format
Type: toxicity, cell-based
Set-up: dose 125 nL, time 70.5 hour; concentration not given beside the values
Conditions: HepG2 cells, read-out: Inhibition
Assay Endpoint: cytotoxicity at 70.5 h (%)
A number alone suffices; assume %.

Answered cases to consult:
>  <Compound>
COCCc1noc(CN2CCOC(CN(C)C)C2)n1 (stereo unspecified)

>  <cytotoxicity at 70.5 h (%)>
-8.08

$$$$
>  <Compound>
CC(C)(C)c1noc(CCCC(=O)NCC2CCS(=O)(=O)C2)n1 (stereo unspecified)

>  <cytotoxicity at 70.5 h (%)>
0.495

$$$$
>  <Compound>
Cc1ccoc1C(=O)N1CCCc2c(c(=O)n(C)n2C)C1

>  <cytotoxicity at 70.5 h (%)>
11.9

$$$$
>  <Compound>
c1csc(CN2CC[C@H]3O[C@@H](COCC4CC4)CC[C@H]32)c1

>  <cytotoxicity at 70.5 h (%)>
27

$$$$
>  <Compound>
Nc1ncc(C(=O)N2CCN(c3nccs3)CC2)cc1Cl

>  <cytotoxicity at 70.5 h (%)>
-4.3

$$$$
>  <Compound>
O=C(NCCNc1ccccn1)Nc1cc(C(F)(F)F)c[nH]c1=O

>  <cytotoxicity at 70.5 h (%)>
-3.73

$$$$

Ask: # return recorded cytotoxicity at 70.5 h for entry `CC(=O)NCc1nc(CCOc2ccc(Cl)cc2)no1`
Result: -4.84

Ask: # return recorded cytotoxicity at 70.5 h for entry `COCCN1C[C@H]2CC[C@@H]1CN(C(=O)CCc1c(C)nn(C)c1C)C2`
Result: -3.68

Ask: # return recorded cytotoxicity at 70.5 h for entry CC(Nc1nc2c(cnn2C)c(=O)[nH]1)c1ccc(F)cc1 (stereo unspecified)
Result: -2.55

Ask: # return recorded cytotoxicity at 70.5 h for entry `Cc1nc(N2CCN(C(=O)C3CCCC3)CC2)c2c(n1)c(C)nn2C`
Result: -0.908

Ask: # return recorded cytotoxicity at 70.5 h for entry Cc1ccc(N2CCCC(NCc3cccc4c3OCO4)C2)nn1 (stereo unspecified)
Result: -0.527

---

Readings of cytotoxicity at 70.5 h for the listed compounds
Assay: Human HepG2 cell viability assay in 384 well format
Format: toxicity, cell-based
Parameters: dose 125 nL, time 70.5 hour; concentration not given beside the values
Details: HepG2 cells, read-out: Inhibition
A number alone suffices; assume %.

Answered cases to consult:
>  <Compound>
CCOc1ccccc1C(=O)NCCC(O)c1ccoc1 (configuration not stated)

>  <cytotoxicity at 70.5 h / %>
9.07

$$$$
>  <Compound>
O=C(CCOc1ccccc1F)NC1CCCN(c2ccccn2)C1 (configuration not stated)

>  <cytotoxicity at 70.5 h / %>
-5.44

$$$$
>  <Compound>
Cc1cc(-c2ccnn2C)nc(C2CCCN(S(C)(=O)=O)C2)n1 (configuration not stated)

>  <cytotoxicity at 70.5 h / %>
-13.9

$$$$

Ask: # return recorded cytotoxicity at 70.5 h for entry `Cc1noc(Cl)c1CC(=O)NCCOc1ccc(F)cc1F`
Result: -0.975

Ask: # return recorded cytotoxicity at 70.5 h for entry `Cn1cc([C@@H]2CN(S(=O)(=O)c3cccs3)C[C@H]2N)c2ccncc21`
Result: 4.81

Ask: # return recorded cytotoxicity at 70.5 h for entry Cc1ccnc(N2CCC(=O)N(Cc3ccc(F)cc3)C(C(C)C)C2)n1 (configuration not stated)
Result: -9.2

Ask: # return recorded cytotoxicity at 70.5 h for entry COC(=O)c1ccc2ccn(CC3COCCO3)c(=O)c2c1 (configuration not stated)
Result: -8.18

Ask: # return recorded cytotoxicity at 70.5 h for entry CCn1cc(C(=O)NCC(OC)c2cccc(Cl)c2)cn1 (configuration not stated)
Result: -2.35

Ask: # return recorded cytotoxicity at 70.5 h for entry `Cn1cc(C(=O)NCc2cn3c(n2)CN(C2CCOCC2)CC3)cn1`
Result: -109

Ask: # return recorded cytotoxicity at 70.5 h for entry OCC1CCCN1c1cc(NCCNc2cccnn2)ncn1 (configuration not stated)
Result: -6.7

Ask: # return recorded cytotoxicity at 70.5 h for entry CCC1(O)CCCN(c2ncnc3c2c(C)nn3C)C1 (configuration not stated)
Result: -4.68

Ask: # return recorded cytotoxicity at 70.5 h for entry COCCOc1ccc(NC(=O)N2CCCC2c2ccsc2)cn1 (configuration not stated)
Result: -5.25
